Values from patent US20190367592A1

- systemUnderTest: T1, recombinant human Tau monomer, 2N4R isoform (amino acids 2-441) (human, UniProt P10636-8 2-441)
- T1 construct: range 2-441; N-terminal His-tag removed with TEV protease; also called monomeric Tau
- T1 sequence (P10636 other isoform, or with tags, fused parts or gaps limits assumed): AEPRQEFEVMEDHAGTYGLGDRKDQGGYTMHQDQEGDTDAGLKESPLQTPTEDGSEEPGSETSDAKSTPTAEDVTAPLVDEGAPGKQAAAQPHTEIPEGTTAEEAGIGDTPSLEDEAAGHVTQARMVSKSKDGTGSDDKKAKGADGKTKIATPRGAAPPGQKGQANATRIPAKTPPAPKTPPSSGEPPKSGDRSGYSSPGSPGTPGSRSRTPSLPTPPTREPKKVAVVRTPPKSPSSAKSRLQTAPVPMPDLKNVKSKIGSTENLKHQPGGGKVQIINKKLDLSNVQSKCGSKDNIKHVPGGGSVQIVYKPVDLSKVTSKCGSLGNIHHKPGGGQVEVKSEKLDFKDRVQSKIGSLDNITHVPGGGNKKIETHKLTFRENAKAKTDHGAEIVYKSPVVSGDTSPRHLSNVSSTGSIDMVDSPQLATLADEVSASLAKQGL
- procedureText: SPR screen, hIgG captured, Tau monomer analyte

binder	Kd / nM
hu125B11 HC1 + 125B11 LC2 (antibody, V domains shown) VH: EVQLVESGGGLVQPGGSLRLSCAASRFIFSNYWMNWVRQAPGKGLEWVAQIRLKSDNYATHYAESVKGRFTISRDDSKNTVYLQMNSLRAEDTAVYYCTGGTTYWGQGTLVTVSS VL: DIQMTQSPSSLSASVGDRVTITCKASQNVGTAVAWYQQKPGKAPKLLIYSASIRYTGVPSRFSGSGSGTDFTLTISSLQPEDFATYFCQQFRTYPYTFGQGTKVEIK	20
hu125B11 HC2 + hu113F5-F7 LC4 (antibody, V domains shown) VH: EVQLVESGGGLVQPGGSLRLSCAASRFIFSNYWMNWVRQAPGKGLEWVAQIRLKSDNYATHYAESVKGRFTISRDNSKNTVYLQMNSLRAEDTAVYYCTGGTTYWGQGTLVTVSS VL: DIQMTQSPSSLSASVGDRVTITCKASQNVGTAVAWYQQKPGKAPKLLIYSASRRFSGVPSRFSGSGSGTDFTLTISSLQPEDFATYYCQQFSTYPYTFGQGTKVEIK	77
hu125B11 HC4 + hu113F5-F7 LC3 (antibody, V domains shown) VH: EVQLVESGGGLVQPGGSLRLSCAASRFIFSNYWMNWVRQAPGKGLEWVAQIRLKSDNYATHYAESVKGRFTISRDNSKNTLYLQMNSLRAEDTAVYYCTGGTTYWGQGTLVTVSS VL: DIQMTQSPSSLSASVGDRVTITCKASQNVGTAVAWYQQKPGKSPKLLIYSASRRFSGVPSRFSGSGSGTDFTLTISSLQPEDFATYYCQQFSTYPYTFGQGTKVEIK	47
